parameter: pIC50
Keep it numeric: pIC50 is minus log10 of the concentration in mol/L.

Req: Report pIC50 from Epidermal growth factor receptor (Homo sapiens, UniProt P00533) testing of "Fc1cccc(Cn2ncc3cc(Nc4ncnn5ccc(COC[C@H]6CCCNC6)c45)ccc32)c1"
Resp: 6.72

Req: Report pIC50 from Epidermal growth factor receptor (Homo sapiens, UniProt P00533) testing of "Fc1cccc(Cn2ncc3cc(Nc4ncnn5ccc(COCC6CCNCC6)c45)ccc32)c1"
Resp: 6.89

Req: Report pIC50 from Epidermal growth factor receptor (Homo sapiens, UniProt P00533) testing of "COCc1ccn2ncnc(Nc3ccc4c(cnn4Cc4cccc(F)c4)c3)c12"
Resp: 6.47

Req: Report pIC50 from Epidermal growth factor receptor (Homo sapiens, UniProt P00533) testing of "Fc1cccc(Cn2ncc3cc(Nc4ncnn5ccc(COC[C@@H]6COCCN6)c45)ccc32)c1"
Resp: 6.19

Req: Report pIC50 from Epidermal growth factor receptor (Homo sapiens, UniProt P00533) testing of "Cc1ccn2ncnc(Nc3ccc4c(cnn4Cc4ccccc4)c3)c12"
Resp: 7.07

Req: Report pIC50 from Epidermal growth factor receptor (Homo sapiens, UniProt P00533) testing of "COc1cn2ncnc(Nc3ccc4c(cnn4Cc4cccc(F)c4)c3)c2c1COC[C@@H]1CNCCO1"
Resp: 6.37

Req: Report pIC50 from Epidermal growth factor receptor (Homo sapiens, UniProt P00533) testing of "Cc1ccn2ncnc(Nc3ccc4c(cnn4Cc4cccc(F)c4)c3)c12"
Resp: 7.09

* * *

tested-on: Receptor tyrosine-protein kinase erbB-2 (Homo sapiens, UniProt P04626)
Sequence (P04626 whole entry): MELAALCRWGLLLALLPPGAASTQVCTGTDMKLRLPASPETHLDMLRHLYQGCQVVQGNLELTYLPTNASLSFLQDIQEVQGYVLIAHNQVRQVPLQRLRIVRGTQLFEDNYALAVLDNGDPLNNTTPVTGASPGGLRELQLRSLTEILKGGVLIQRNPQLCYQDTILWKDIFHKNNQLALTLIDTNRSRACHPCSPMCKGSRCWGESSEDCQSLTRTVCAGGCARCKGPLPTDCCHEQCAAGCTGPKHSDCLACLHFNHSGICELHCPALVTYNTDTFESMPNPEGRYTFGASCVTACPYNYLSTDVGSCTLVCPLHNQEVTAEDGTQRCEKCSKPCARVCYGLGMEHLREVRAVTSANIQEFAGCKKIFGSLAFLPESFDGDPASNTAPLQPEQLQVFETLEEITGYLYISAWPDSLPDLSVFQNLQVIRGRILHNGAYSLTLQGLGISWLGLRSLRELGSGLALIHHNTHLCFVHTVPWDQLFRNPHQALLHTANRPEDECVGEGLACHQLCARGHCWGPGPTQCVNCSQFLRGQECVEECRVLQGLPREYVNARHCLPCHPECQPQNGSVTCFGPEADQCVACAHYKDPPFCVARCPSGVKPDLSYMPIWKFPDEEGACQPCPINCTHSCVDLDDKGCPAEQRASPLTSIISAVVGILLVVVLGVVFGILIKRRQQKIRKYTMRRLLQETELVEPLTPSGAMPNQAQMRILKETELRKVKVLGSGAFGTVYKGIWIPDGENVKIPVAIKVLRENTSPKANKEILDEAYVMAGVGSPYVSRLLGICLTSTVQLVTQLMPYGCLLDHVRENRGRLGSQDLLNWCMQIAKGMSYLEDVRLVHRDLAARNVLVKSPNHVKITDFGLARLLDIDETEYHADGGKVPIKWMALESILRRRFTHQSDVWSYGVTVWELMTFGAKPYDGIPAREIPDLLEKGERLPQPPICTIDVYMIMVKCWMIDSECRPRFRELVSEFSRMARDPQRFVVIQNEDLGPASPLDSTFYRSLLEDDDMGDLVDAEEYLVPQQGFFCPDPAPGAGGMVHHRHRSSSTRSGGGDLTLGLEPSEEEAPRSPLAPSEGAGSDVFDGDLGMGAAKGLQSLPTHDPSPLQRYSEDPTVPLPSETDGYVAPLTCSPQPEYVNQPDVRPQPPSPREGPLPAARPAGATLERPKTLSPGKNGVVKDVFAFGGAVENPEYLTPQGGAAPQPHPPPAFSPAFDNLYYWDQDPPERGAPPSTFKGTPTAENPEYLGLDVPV
method-notes: Inhibition of human recombinant cytoplasmic HER2 kinase expressed in Sf9 cells
parameter: log10 of IC50 (log10 of the value in nM)
Values reflect log10 of reported IC50 (nM).

Req: Report log10 of IC50, nothing else, for this molecule: "Fc1cccc(Cn2ncc3cc(Nc4ncnn5ccc(COCC6CCNCC6)c45)ccc32)c1"
Resp: 2.08

Req: Report log10 of IC50, nothing else, for this molecule: "C[C@@H](c1ccccc1)n1ncc2cc(Nc3ncnn4ccc(COC[C@@H]5CNCCO5)c34)ccc21"
Resp: 2.93

Req: Report log10 of IC50, nothing else, for this molecule: "Fc1cccc(Cn2ncc3cc(Nc4ncnn5ccc(COC[C@@H]6CNCCO6)c45)ccc32)c1"
Resp: 1.74

Req: Report log10 of IC50, nothing else, for this molecule: "CN(C)CCCOCc1ccn2ncnc(Nc3ccc4c(cnn4Cc4cccc(F)c4)c3)c12"
Resp: 2.75

Req: Report log10 of IC50, nothing else, for this molecule: "Cc1ccn2ncnc(Nc3ccc4c(cnn4Cc4cccnc4)c3)c12"
Resp: 2.40

Req: Report log10 of IC50, nothing else, for this molecule: "Cc1ccn2ncnc(Nc3ccc4c(cnn4Cc4ccccc4)c3)c12"
Resp: 2.04

Req: Report log10 of IC50, nothing else, for this molecule: "C[C@H](c1cccc(F)c1)n1ncc2cc(Nc3ncnn4ccc(COC[C@@H]5CNCCO5)c34)ccc21"
Resp: 1.61

Req: Report log10 of IC50, nothing else, for this molecule: "COCc1ccn2ncnc(Nc3ccc4c(cnn4Cc4cccc(F)c4)c3)c12"
Resp: 2.62

Req: Report log10 of IC50, nothing else, for this molecule: "COc1cn2ncnc(Nc3ccc4c(cnn4Cc4cccc(F)c4)c3)c2c1COC[C@@H]1CNCCO1"
Resp: 2.40

* * *

parameter: IC50

Req: Report IC50 from Vascular endothelial growth factor receptor 2 (Homo sapiens, UniProt P35968) testing of "Fc1cccc(Cn2ncc3cc(Nc4ncnn5ccc(COC[C@@H]6CNCCO6)c45)ccc32)c1"
Resp: > 10 µM

* * *

method-notes: Permeability across Caco-2 cell membrane
Type: ADME, cell-based
condition-info: human, read-out: permeability
parameter: Papp (×10⁻⁶ cm/s)
Give a bare numeral; the unit ×10⁻⁶ cm/s is implied.

Req: Report Papp, nothing else, for this compound: "Fc1cccc(Cn2ncc3cc(Nc4ncnn5ccc(COC[C@@H]6CNCCO6)c45)ccc32)c1"
Resp: 6.4

* * *

method-notes: Fraction unbound (%) ligand in mouse serum at 10 uM by equilibrium dialysis
Assay type: ADME, cell-free, Plasma
parameter: fraction unbound at 10 µM

Req: Report fraction unbound at 10 µM, nothing else, for this compound: "Fc1cccc(Cn2ncc3cc(Nc4ncnn5ccc(COC[C@@H]6CNCCO6)c45)ccc32)c1"
Resp: 0.026

* * *

tested-on: Receptor tyrosine-protein kinase erbB-2 (Homo sapiens, UniProt P04626)
method-notes: Inhibition of human recombinant cytoplasmic HER2 kinase expressed in Sf9 cells
Assignment: determine reported log10 of IC50 for the given compounds.
Values reflect log10 of reported IC50 (nM).

Req: Report log10 of IC50, nothing else, for this compound: "c1cncc(Cn2ncc3cc(Nc4ncnn5ccc(COC[C@@H]6CNCCO6)c45)ccc32)c1"
Resp: 2.61

Req: Report log10 of IC50, nothing else, for this compound: "Fc1cccc(Cn2ncc3cc(Nc4ncnn5ccc(COC[C@H]6CNCCO6)c45)ccc32)c1"
Resp: 1.78

Req: Report log10 of IC50, nothing else, for this compound: "OCc1ccn2ncnc(Nc3ccc4c(cnn4Cc4cccc(F)c4)c3)c12"
Resp: 2.04

Req: Report log10 of IC50, nothing else, for this compound: "c1ccc(Cn2ncc3cc(Nc4ncnn5ccc(COC[C@@H]6CNCCO6)c45)ccc32)nc1"
Resp: 2.58

Req: Report log10 of IC50, nothing else, for this compound: "Fc1cccc(Cn2ncc3cc(Nc4ncnn5ccc(COC[C@H]6CCCNC6)c45)ccc32)c1"
Resp: 2.23

Req: Report log10 of IC50, nothing else, for this compound: "NCCCOCc1ccn2ncnc(Nc3ccc4c(cnn4Cc4cccc(F)c4)c3)c12"
Resp: 1.78

Req: Report log10 of IC50, nothing else, for this compound: "O=C(O)COCc1ccn2ncnc(Nc3ccc4c(cnn4Cc4cccc(F)c4)c3)c12"
Resp: 1.26

Req: Report log10 of IC50, nothing else, for this compound: "Fc1cccc(Cn2ncc3cc(Nc4ncnn5ccc(COC6CCNCC6)c45)ccc32)c1"
Resp: 1.85

Req: Report log10 of IC50, nothing else, for this compound: "COC(=O)COCc1ccn2ncnc(Nc3ccc4c(cnn4Cc4cccc(F)c4)c3)c12"
Resp: 2.45

Req: Report log10 of IC50, nothing else, for this compound: "Cc1ccn2ncnc(Nc3ccc(OCc4cccc(F)c4)c(Cl)c3)c12"
Resp: 2.63

Req: Report log10 of IC50, nothing else, for this compound: "COCCOCc1ccn2ncnc(Nc3ccc4c(cnn4Cc4cccc(F)c4)c3)c12"
Resp: 2.62

Req: Report log10 of IC50, nothing else, for this compound: "NCCCCOCc1ccn2ncnc(Nc3ccc4c(cnn4Cc4cccc(F)c4)c3)c12"
Resp: 2.11

Req: Report log10 of IC50, nothing else, for this compound: "NC(=O)COCc1ccn2ncnc(Nc3ccc4c(cnn4Cc4cccc(F)c4)c3)c12"
Resp: 2.04

Req: Report log10 of IC50, nothing else, for this compound: "Cc1ccn2ncnc(Nc3ccc4c(cnn4Cc4cccc(F)c4)c3)c12"
Resp: 1.94

Req: Report log10 of IC50, nothing else, for this compound: "C[C@@H](c1cccc(F)c1)n1ncc2cc(Nc3ncnn4ccc(COC[C@@H]5CNCCO5)c34)ccc21"
Resp: 2.71

Req: Report log10 of IC50, nothing else, for this compound: Fc1cccc(Cn2ncc3cc(Nc4ncnn5ccc(COCC6CNCCOC6)c45)ccc32)c1 (stereo not given)
Resp: 2.15

Req: Report log10 of IC50, nothing else, for this compound: "Cc1ccn2ncnc(Nc3ccc4c(cnn4Cc4ccccn4)c3)c12"
Resp: 2.49

Req: Report log10 of IC50, nothing else, for this compound: "Fc1cccc(Cn2ncc3cc(Nc4ncnn5ccc(COC[C@@H]6COCCN6)c45)ccc32)c1"
Resp: 2.77

Req: Report log10 of IC50, nothing else, for this compound: "C[C@H](c1ccccc1)n1ncc2cc(Nc3ncnn4ccc(COC[C@@H]5CNCCO5)c34)ccc21"
Resp: 2.11

* * *

Assignment: determine reported Stability for the given compounds.
Tested on: Liver
method-notes: Metabolic stability in mouse liver microsomes assessed as rate of metabolism per mg protein at 3 uM after 10 mins
Format: ADME, Microsome
A bare number is not enough; add the unit after it.

Req: Report Stability, nothing else, for this compound: "NCCCOCc1ccn2ncnc(Nc3ccc4c(cnn4Cc4cccc(F)c4)c3)c12"
Resp: 0.01 nmol/min/mg

Req: Report Stability, nothing else, for this compound: "Fc1cccc(Cn2ncc3cc(Nc4ncnn5ccc(COC[C@@H]6CNCCO6)c45)ccc32)c1"
Resp: 0.07 nmol/min/mg

Req: Report Stability, nothing else, for this compound: "Cc1ccn2ncnc(Nc3ccc4c(cnn4Cc4cccc(F)c4)c3)c12"
Resp: 0.14 nmol/min/mg

Req: Report Stability, nothing else, for this compound: "Fc1cccc(Cn2ncc3cc(Nc4ncnn5ccc(COC6CCNCC6)c45)ccc32)c1"
Resp: 0.02 nmol/min/mg

Req: Report Stability, nothing else, for this compound: "COCc1ccn2ncnc(Nc3ccc4c(cnn4Cc4cccc(F)c4)c3)c12"
Resp: 0.24 nmol/min/mg

Req: Report Stability, nothing else, for this compound: "CN(C)CCCOCc1ccn2ncnc(Nc3ccc4c(cnn4Cc4cccc(F)c4)c3)c12"
Resp: 0.12 nmol/min/mg

Where do the numbers come from? From ChEMBL document CHEMBL1139130.
